The measurements presented in this section are drawn from patent US20080026996A1.

- SYSTEM: human VPAC1 (Homo sapiens, UniProt P32241)
- Sequence (P32241 31-457): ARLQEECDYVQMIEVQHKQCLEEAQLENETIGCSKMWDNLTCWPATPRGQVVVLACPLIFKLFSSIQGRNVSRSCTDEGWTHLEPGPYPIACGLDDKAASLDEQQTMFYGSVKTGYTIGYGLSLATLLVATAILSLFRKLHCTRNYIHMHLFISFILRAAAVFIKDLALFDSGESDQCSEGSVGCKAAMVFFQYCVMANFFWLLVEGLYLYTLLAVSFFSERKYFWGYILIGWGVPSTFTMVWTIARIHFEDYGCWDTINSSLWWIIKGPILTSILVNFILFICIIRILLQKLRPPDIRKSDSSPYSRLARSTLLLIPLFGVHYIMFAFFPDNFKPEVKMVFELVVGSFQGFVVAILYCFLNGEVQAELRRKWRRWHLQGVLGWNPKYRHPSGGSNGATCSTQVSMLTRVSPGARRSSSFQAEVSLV
- ASSAY_TEXT: Filter binding assay, membranes of cells transiently transfected with human VPAC1, 125I-labeled VIP tracer (Table 2)
- Set-up: expressed in transfected cells
- RECORDED_CONDITIONS: read-out: Human VPAC1 Receptor Binding
Where no end group is shown, it is not given here. The star is where a group is joined. Hexanoyl = CCCCCC(=O)*
Below: a set of entries, each annotated with reported IC50.
Include the unit right after the number.

# example entries with known answers
> print(dat)
                                  substance  observed.property  reported.value
1  Hexanoyl-HSDAVFTDNYTRLRKQVAAKKYVQSIKNKRYGGPSSGAPPPS [Agonist P234]               IC50          641 nM
2  Hexanoyl-HSDAVFTDNYTRLRAQVAAKKYLQSIKNKRYGGPSSGAPPPS [Agonist P139]               IC50          235 nM
3  Hexanoyl-HSDAVFTDNYTRLRQQVAAKKYLQSIKNKRYGGPSSGAPPPS [Agonist P177]               IC50          128 nM

Lab note: next substance to report on.
Dear colleague, I am looking for the recorded IC50 of the following substance: Hexanoyl-HSDAVFTDNYTRLRKQVAAQKYLQSIKNKRYGGPSSGAPPPS [Agonist P150] 444 nM

====

- SYSTEM: human VPAC1 (Homo sapiens, UniProt P32241)
- Sequence (P32241 31-457): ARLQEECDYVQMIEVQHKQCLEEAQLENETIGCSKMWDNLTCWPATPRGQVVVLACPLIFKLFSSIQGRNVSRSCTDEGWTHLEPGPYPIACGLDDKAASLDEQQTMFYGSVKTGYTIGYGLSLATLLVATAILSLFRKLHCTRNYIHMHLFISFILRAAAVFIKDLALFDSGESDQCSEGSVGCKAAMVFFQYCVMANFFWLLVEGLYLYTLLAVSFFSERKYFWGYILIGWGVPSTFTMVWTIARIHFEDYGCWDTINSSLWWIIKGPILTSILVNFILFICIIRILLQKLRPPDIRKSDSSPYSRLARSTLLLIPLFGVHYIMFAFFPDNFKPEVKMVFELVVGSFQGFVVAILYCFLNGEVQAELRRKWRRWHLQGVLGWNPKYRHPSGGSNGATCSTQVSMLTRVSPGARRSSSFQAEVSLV
- ASSAY_TEXT: DiscoveRx cAMP in vitro potency, CHO-PO cells transiently transfected with human VPAC1 receptor
- Format: cell-based
- Design: expressed in transfected cells; host or cells: CHO-PO, transient (Lipofectamine)
Where no end group is shown, it is not given here.
OBSERVED_PROPERTY: EC50 (nM)
State just the number; it will be interpreted in nM.

I'm curious: which EC50 was measured for HSDVVFTDNYTRLRKQVAAKKYLQSIKNKRYGGPSSGAPPPS [Agonist P53] tested on human VPAC1 (Homo sapiens, UniProt P32241)? 118
